Consider the following compounds; for each one, report its growth inhibition.
- experimentalDetails: NCI Yeast Anticancer Drug Screen. Data for the sgs1 mgt1 strain (AID 161);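 also: 0% = growth of cultures given vehicle only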
- cond: S. cerevisiae sgs1 mgt1 strain, at 50.0 µM, stronger effect = higher value
This is part of a sample that, as a whole, favours compounds with a hit. Of some 79,000 tested, about 15% had one in any assay.
Answers are plain numbers, in %.

[[record]]
compound = "Nc1[nH]c(=O)nc2snnc12"
endpointlabel = "growth inhibition"
outputunit = "%"
recordedvalue = 14.9

[[record]]
compound = "Nc1nc(Br)nc2ncn(C3CC(O)C(CO)O3)c12 (configuration not stated)"
endpointlabel = "growth inhibition"
outputunit = "%"
recordedvalue = 18.3

[[record]]
compound = "CN(C)CCN1C(=O)c2c(c3cccn3c3c2cnn3-c2ccccc2)C1=O"
endpointlabel = "growth inhibition"
outputunit = "%"
recordedvalue = 34

[[record]]
compound = "O=CNCC(=O)Nc1ccccc1"
endpointlabel = "growth inhibition"
outputunit = "%"
recordedvalue = -3.45

[[record]]
compound = "COC(=O)C1C2C=CC(O2)C1C(=O)OC (configuration not stated)"
endpointlabel = "growth inhibition"
outputunit = "%"
recordedvalue = -9.75


I need growth inhibition for every entry listed below, if you could help.
1. CCc1cccc(C(C)CC)c1NC(=O)CC1C(=O)Nc2ccccc2S1=O (configuration not stated)
2. C=C(C)C#CC(O)(C(=O)OC1CCN(C)CC1)C(C)C (configuration not stated)
3. Cc1ccc(S(=O)(=O)N/N=C/C(O)C(O)C(O)C(O)CO)cc1 (configuration not stated)

A)
7.2
-21.1
-14.8

I need growth inhibition for every entry listed below, if you could help.
1. N=C(N)n1[nH]c2c(c1=O)CCCC2
2. O=c1ccc2c([nH]1)CCCC2
3. CCOC(=O)c1cnc2cc3c(cc2c1Nc1cccc(C(F)(F)F)c1)OCO3
4. O=C(O)CN1C(=O)/C(=C\c2ccc3ccccc3n2)SC1=S

A)
1: -12.1; 2: -30.9; 3: -9.5; 4: 2.85

* * *

- experimentalDetails: NCI Yeast Anticancer Drug Screen. Data for the mec2-1 strain (AID 157)
- cond: S. cerevisiae mec2-1 strain, at 50.0 µM
Compounds without any hit were thinned out: in the full panel of roughly 79,000, 15% have a hit. Active and inactive are the calls of the source. Rule as the data show it: active = growth inhibition above about 70%; inactive = the rest.
Pick one and only one: active, inactive

Recorded results for 2 compounds are shown here.
[[record]]
compound = "CC(C)c1ccc2c(c1)CCC1C2(C)CCCC1(C)C(O)c1ccccc1 (configuration not stated)"
category = "inactive"

[[record]]
compound = "O=C1c2ccccc2CCC12OC2c1ccccn1 (configuration not stated)"
category = "active"


Q) Call for entry `S=C1Cc2c(-c3ccccc3)cc(-c3ccc(Cl)cc3)nc2-c2ccccc2N1` :
A) inactive

Q) Call for entry CCCCCCCCCCCCCCCCCC(=O)Oc1c(C(C)CC)cc([N+](=O)[O-])cc1[N+](=O)[O-] (configuration not stated) :
A) inactive

Q) Call for entry CC(O)CN(CC(C)O)c1ccc2c(c1)Cc1ccccc1-2 (configuration not stated) :
A) inactive

Q) Call for entry `CCOc1ccc(CN(CCN2CCCCC2)c2ccccn2)cc1` :
A) inactive

Q) Call for entry CC(=O)NC(=O)C(C(C)=O)c1ccccc1 (configuration not stated) :
A) inactive

Q) Call for entry `COc1cc(C2(C)SCCCS2)c(I)c(OC)c1OC` :
A) inactive

Q) Call for entry `CC1(C)COC(c2c(F)cccc2Cl)=N1` :
A) inactive

Q) Call for entry CCCCNC(=O)C(CCCC)C(CCC)(CCC)CCCC (configuration not stated) :
A) inactive

Q) Call for entry `O=S1(=O)CS(=O)(=O)OCCCCO1` :
A) inactive

Q) Call for entry `O=C1OC(=O)c2c(Br)c(Br)c(Br)c(Br)c21` :
A) inactive

* * *

- experimentalDetails: NCI Yeast Anticancer Drug Screen. Data for the rad50 strain (AID 155);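 also: 0% = growth of vehicle-only cultures of the same strain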
- cond: S. cerevisiae rad50 strain growth inhibition; at 50.0 µM; stronger effect = higher value
Compounds without any hit were thinned out: in the full panel of roughly 79,000, 15% have a hit.
Consider the following compounds; for each one, report its growth inhibition.
Numbers only, in %.

I need growth inhibition for every entry listed below, if you could help.
1. O=C(Nc1cc2ccccc2cc1C(=O)O)Nc1cccc2ccccc12
2. CC(C)=NNC(=O)c1ccccc1CC(O)(c1ccccc1)c1ccccc1
3. CN1[C@@H]2C[C@@H](OC(=O)[C@H](CO)c3ccccc3)C[C@H]1[C@@H]1O[C@@H]12
4. O=C(Cc1nc2ccc([N+](=O)[O-])cc2[nH]c1=O)C(=O)Nc1ccccc1[N+](=O)[O-]
5. O=c1c(SCc2ccccc2)c(N2CCOCC2)cnn1-c1ccccc1
6. COC(=O)NCc1nc2cc3c[nH][nH]c3cc2n1
7. CN(C)C1CCC(C=C(C2CCC(CC(=O)O)CC2)C2CCC(CC(=O)O)CC2)CC1 (centres undefined)
8. COc1ccc(/C=C2\CCCC(C(NO)c3ccc(OC)cc3)C2=NO)cc1 (centres undefined)

A)
1: 10.2; 2: 22.1; 3: -1.3; 4: 25.6; 5: 28.4; 6: -8.15; 7: -2.95; 8: 13.6

I need growth inhibition for every entry listed below, if you could help.
1. CCCC(C)(C)CO
2. NCC(=O)NCCC(=O)O
3. CC1(C)OC(=O)CC1CCN (centres undefined)
4. c1cncc([O][Ge]([O]c2cccnc2)([O]c2cccnc2)[O]c2cccnc2)c1
5. CC1=CC(C)=C(C#N)C2=S=C(c3ccccc3)C(=O)N12
6. Cc1ccc2cc(CCCC(=O)O)ccc2c1
7. CC(=O)C(C(C)=O)C(c1cccnc1)C(C(C)=O)C(C)=O

A)
1: 1.75; 2: 3.15; 3: -0.75; 4: 8.6; 5: 6; 6: 43.4; 7: 2.7

I need growth inhibition for every entry listed below, if you could help.
1. N=C(N)SCC(=O)c1ccc([N+](=O)[O-])cc1
2. CCOC1C(Br)Cn2c(=O)c3cc4ccccc4cc3c(=O)n2C1C (centres undefined)

A)
-6.65
61.2

I need growth inhibition for every entry listed below, if you could help.
1. CC1(C)OCC2OC(n3cnc4c(N)nc(Cl)nc43)C(OS(C)(=O)=O)C2O1 (centres undefined)
2. CCCCCC(CN(C)C)C(=O)CC(SCC)c1ccccc1 (centres undefined)
3. COc1ccc2c(c1)C(=O)C1CCC(=O)N1C2c1ccc2c(c1)OCO2 (centres undefined)

A)
3.75
27.7
-9.65

* * *

Consider the following compounds; for each one, report its growth inhibition.
- experimentalDetails: NCI Yeast Anticancer Drug Screen. Data for the mlh1 rad18 strain (AID 175)
- cond: S. cerevisiae mlh1 rad18 strain growth inhibition; at 50.0 µM; stronger effect = higher value
Compounds without any hit were thinned out: in the full panel of roughly 79,000, 15% have a hit. Activity calls are given as the source filed them. No stated cut-off is given here; in the data, active means growth inhibition above about 70%; inactive means the rest.

# example entries with known answers
[[record]]
compound = "O=C(Nc1ccc(Cl)cc1)NS(=O)(=O)c1coc2ccccc2c1=O"
recordedvalue = "23.1% (inactive)"

[[record]]
compound = "CN(CC1=C(O)C(=O)C(CN(C)Cc2c(O)ccc3ccccc23)=C(O)C1=O)Cc1c(O)ccc2ccccc12"
recordedvalue = "28.9% (inactive)"

[[record]]
compound = "C=C(C)CS(=O)(=O)Cc1ccccc1"
recordedvalue = "7.6% (inactive)"

[[record]]
compound = "Cc1cccc(NC(=O)Oc2ccc(Cl)cc2C(=O)c2ccccc2)c1"
recordedvalue = "26.2% (inactive)"

[[record]]
compound = "Cc1ccc(S(=O)(=O)NN=C2CC3C4CCC5C4CC3C25)cc1 (stereo unspecified)"
recordedvalue = "7.1% (inactive)"


Switching to the query record.
Q) Any idea what growth inhibition was measured for `Cc1ccc(NC=O)cc1NC=O` ?
A) 15.9% (inactive)

* * *

Consider the following molecules; for each one, report its growth inhibition.
- experimentalDetails: NCI Yeast Anticancer Drug Screen. Data for the sgs1 mgt1 strain (AID 161);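 also: 0% = growth of cultures given vehicle only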
- cond: S. cerevisiae sgs1 mgt1 strain, at 50.0 µM, stronger effect = higher value
About 79,000 compounds went through this panel and 15% of them were active in at least one assay; those are over-represented in the sample as a whole.
Give bare numbers, in %.

[[record]]
molecule = "O=C(NC1COB(c2cccc([N+](=O)[O-])c2)OC1c1ccc([N+](=O)[O-])cc1)C(Cl)Cl (configuration not stated)"
outputunit = "%"
recordedvalue = 5.65

[[record]]
molecule = "CC(=O)OC1C(C)OC(n2cnc3c(=O)[nH]cnc32)C(OC(C)=O)C1OC(C)=O (configuration not stated)"
outputunit = "%"
recordedvalue = 16.4

[[record]]
molecule = "COC1(OC)CCC2C1C1CCC(OC)(OC)C21 (configuration not stated)"
outputunit = "%"
recordedvalue = 11.3

[[record]]
molecule = "COC(=O)C1(OC(=O)Sc2ccccc2)CCN(C)CC1"
outputunit = "%"
recordedvalue = -7.15

[[record]]
molecule = "COC(=O)c1cc(C)c2c3ccccc3n(C)c2c1C(=O)OC"
outputunit = "%"
recordedvalue = -8.9


I need growth inhibition for every entry listed below, if you could help.
1. O=C(O)C=C(CBr)CBr
2. CCCC[n+]1cccc(C(=O)c2ccccc2)c1
3. O=C1NC(=S)S/C1=C\c1ccc2c(c1)OCO2
4. O=C1C(Cc2ccccc2)CCCC1Cc1ccccc1 (configuration not stated)
5. c1ncn(Sn2cncn2)n1
6. O=NC1C(Cl)C2CC1C1COCC21 (configuration not stated)
7. C/C=C/C1OCC(C)([N+](=O)[O-])CO1 (configuration not stated)

A)
1: -1.25; 2: 0.7; 3: -4.8; 4: -8.05; 5: -4.25; 6: -9.05; 7: 19.4
